Where these numbers come from: paper PMC12291762

Reported Rat paw thickness, 3 h values follow for various molecules
System: carrageenan-induced rat paw edema
Experiment: Carrageenan-induced rat paw edema model of acute inflammation
Format: in vivo, Wistar albino rats
Conditions: 0.0315 mmol/kg i.p., 3 h post-carrageenan; mean ± SD

molecule: C[C@H](C(=O)N[C@@H](Cc1ccccc1)C(=O)O)c1cccc(C(=O)c2ccccc2)c1 [Compound 3]
Rat paw thickness, 3 h (mm): 5.73
//
molecule: C[C@H](C(=O)NCCCC(=O)O)c1cccc(C(=O)c2ccccc2)c1 [Compound 5]
Rat paw thickness, 3 h (mm): 5.00
//
molecule: C[C@H](C(=O)N[C@@H](Cc1c[nH]c2ccccc12)C(=O)O)c1cccc(C(=O)c2ccccc2)c1 [Compound 4]
Rat paw thickness, 3 h (mm): 5.38
//
molecule: C[C@H](NC(=O)[C@@H](C)c1cccc(C(=O)c2ccccc2)c1)C(=O)O [Compound 2]
Rat paw thickness, 3 h (mm): 5.92
//
molecule: C[C@H](C(=O)NCC(=O)O)c1cccc(C(=O)c2ccccc2)c1 [Compound 1]
Rat paw thickness, 3 h (mm): 5.16
